# Target Entity: T1, Anti-PSMA Fab (SEQ ID NOs: 19, 20)
# T1 construct: Biotinylated and captured on neutravidin coated plates in the phage ELISA; also called 006 PSMA Fab
# Assay Comment: phage binding ELISA; biotinylated anti-PSMA Fab captured on neutravidin, bound phage detected with anti-M13 HRP
Quick rule: Anti-PSMA Fab (SEQ ID NOs: 19, 20) signal of at least 2 means Yes, below that means No.

[
  {
    "Binder": "LTKLCIPDWMCSEF [Phage-1776 (clonal phage displaying the peptide of SEQ ID NO: 2072)]",
    "Category Label": "Yes"
  },
  {
    "Binder": "IPKSCIPSWMCTGF [Phage-1775 (clonal phage displaying the peptide of SEQ ID NO: 2071)]",
    "Category Label": "Yes"
  },
  {
    "Binder": "ISKWCIPEWMCTSP [Phage-1787 (clonal phage displaying the peptide of SEQ ID NO: 2083)]",
    "Category Label": "No"
  },
  {
    "Binder": "VEKLCTPIWMCLGF [Phage-1785 (clonal phage displaying the peptide of SEQ ID NO: 2081)]",
    "Category Label": "No"
  },
  {
    "Binder": "LEKLCKPAWMCVNF [Phage-1788 (clonal phage displaying the peptide of SEQ ID NO: 2084)]",
    "Category Label": "No"
  },
  {
    "Binder": "DVKLCKPEWMCYGL [Phage-1786 (clonal phage displaying the peptide of SEQ ID NO: 2082)]",
    "Category Label": "No"
  }
]
